assay: in vivo; settings: female, CD-1, mouse, po, 25 mg/kg
value_kind: Tmax (min)
Give a bare numeral; the unit min is implied.

Below, each entry is followed by its recorded Tmax result.
{"compound": "O=[N+]([O-])c1cn2c(n1)OC[C@@H](NCc1ccc(OC(F)(F)F)c(F)c1)C2 [NI-136]", "Tmax (min)": 30}
{"compound": "O=[N+]([O-])c1cn2c(n1)OC[C@@H](NCc1ccc(OC(F)(F)F)c(O)c1)C2 [NI-147]", "Tmax (min)": 6}

Give the measured Tmax for CC[C@@H]1Oc2nc([N+](=O)[O-])cn2C[C@@H]1OCc1ccc(OC(F)(F)F)cc1 [NI-145]
120

Give the measured Tmax for CC[C@H]1Oc2nc([N+](=O)[O-])cn2C[C@@H]1NCc1ccc(-c2ccc(OC(F)(F)F)cc2)cc1 [NI-297]
480

Give the measured Tmax for O=[N+]([O-])c1cn2c(n1)OC[C@@H](NCc1ccc(OC(F)(F)F)c(Cl)c1)C2 [NI-135]
30

Give the measured Tmax for CC[C@H]1Oc2nc([N+](=O)[O-])cn2C[C@@H]1NCc1ccc(OC(F)(F)F)cc1 [NI-182]
30

Give the measured Tmax for CC[C@@H]1Oc2nc([N+](=O)[O-])cn2C[C@@H]1NCc1ccc(OC(F)(F)F)cc1 [NI-269]
18

Give the measured Tmax for O=[N+]([O-])c1cn2c(n1)OC[C@@H](OCc1ccc(OC(F)(F)F)cc1)C2 [PA-824, reference compound]
18

----------
Quick list: half-life per entry.
experiment: In vivo plasma PK after oral dosing in CM-2 formulation; details: female, CD-1, mouse, plasma, po, 10 mg/kg
Give a bare numeral; the unit min is implied.

{"input_smiles": "O=[N+]([O-])c1cn2c(n1)OC[C@@H](NCc1ccc(OC(F)(F)F)cc1)C2", "value_kind": "half-life", "experimental_result": 120}

Turning now to a further molecule:
Give the measured half-life for `O=[N+]([O-])c1cn2c(n1)OC[C@@H](NCCc1ccc(OC(F)(F)F)cc1)C2`
102

----------
experiment: in vivo; conditions: female, CD-1, mouse, po, 25 mg/kg
AUC below 20000 ng·h/mL gives 0; AUC at or above it gives 1.

Field: example entries. Status: answers known.
{"molecule": "CC[C@H]1Oc2nc([N+](=O)[O-])cn2C[C@@H]1NCc1ccc(OC(F)(F)F)cc1 [NI-182]", "class_name": 1}
{"molecule": "O=[N+]([O-])c1cn2c(n1)OC[C@@H](OCc1ccc(OC(F)(F)F)cc1)C2 [PA-824, reference compound]", "class_name": 1}
{"molecule": "O=[N+]([O-])c1cn2c(n1)OC[C@@H](NCc1ccc(OC(F)(F)F)c(F)c1)C2 [NI-136]", "class_name": 0}
{"molecule": "O=[N+]([O-])c1cn2c(n1)OC1(CC1)C(OCc1ccc(OC(F)(F)F)cc1)C2 (stereo not shown) [NI-302]", "class_name": 1}
{"molecule": "O=[N+]([O-])c1cn2c(n1)OC[C@@H](NCc1ccc(OC(F)(F)F)c(O)c1)C2 [NI-147]", "class_name": 0}

Entry O=[N+]([O-])c1cn2c(n1)OC[C@@H](NCc1ccc(OC(F)(F)F)c(Cl)c1)C2 [NI-135] : is its AUC no less than 20000 ng·h/mL?
0

Entry CC[C@@H]1Oc2nc([N+](=O)[O-])cn2C[C@@H]1NCc1ccc(OC(F)(F)F)c(F)c1 [NI-176] : is its AUC no less than 20000 ng·h/mL?
0

Entry CC[C@@H]1Oc2nc([N+](=O)[O-])cn2C[C@@H]1OCc1ccc(OC(F)(F)F)cc1 [NI-145] : is its AUC no less than 20000 ng·h/mL?
0

Entry CC[C@H]1Oc2nc([N+](=O)[O-])cn2C[C@@H]1NCc1ccc(-c2ccc(OC(F)(F)F)cc2)cc1 [NI-297] : is its AUC no less than 20000 ng·h/mL?
1

Entry CC[C@@H]1Oc2nc([N+](=O)[O-])cn2C[C@@H]1NCc1ccc(OC(F)(F)F)cc1 [NI-269] : is its AUC no less than 20000 ng·h/mL?
0
